- tested system: T1, Insulin receptor (IR) prepared according to Bass et al., 1996 (human, UniProt P06213 28-956)
- T1 construct: extracellular domain; also called soluble IR (Bass construct); sIR-Fc; not shown: immunoglobulin heavy chain constant domains of the Bass chimera
- method: phage ELISA; ratio over background for IR divided by that for IGF-1R
No end group written: not given here.
Lab note - cut at 0.3 ratio for IR/IGF-1R ratio comparison: y if strictly below, n if not.

• GHYFGSFYDAIDQLVAGMLPG [20E2A-3-A3-IGFR] = n
• AGSVTSFYDAMEQLVATGTSA [20E2A-3-A4-IGFR] = n
• QSGSGDFYDWLSRLIRGNGDG (not fully specified (N-terminus, C-terminus)) [20E2Bβ-3-C7-IR] = n
• LSCLAYSRHGIWRPSTDLGLGRSVGEGSVSTRWRGYDWFE [40F-4-D1-IGFR] = y
• CSMAAVAEAGDDDDPFYHKLSELCQGS [B6Hα-3-F1-IR] = n
• VRGFQGGTVWPGYEWLRNAA (not fully specified (N-terminus, C-terminus)) [R20β-E8-IR] = y
• CGAKMTGTPNDPFYHKLSELLQRG [B6Hα-3-E6-IR] = n
• MNVFVSFYDAIDQLVCQRIGC (not fully specified (N-terminus, C-terminus, bridges); cysteine pairing not given here) [20E2A-4-G11-IGFR] = n
• AETSAQVGWQRLWSVWPGDHWSTLDPFYHKLSELLRESGA (not fully specified (residue 27, N-terminus, C-terminus); printed as AETSAQVGWQRLWSVWPGDHWSTLDP9YHKLSELLRESGA) [26L-3-G5-IR] = n
